// provenance: patent US20120010206A1

Molecular target: TAK1-TAB1 fusion protein (Homo sapiens)
Test: In vitro TAK1 kinase assay (33P-ATP, casein substrate)
Conditions: semi-quantitative score, at least two independent experiments
pIC50: −log10 of the molar value.
measured-property: pIC50

What does the record list as pIC50 for CN(C)CCCNC(=O)c1ccc(Nc2ccc(-c3ccc4c(c3)CNC4=O)n3ccnc23)cc1 ?
6.00 to 7.00

What does the record list as pIC50 for CCN1CCN(c2ccc(Nc3ccc(-c4ccc5c(c4)CNC5=O)n4ccnc34)cc2Cl)CC1 ?
6.00 to 7.00

What does the record list as pIC50 for O=C(NCc1cccc(-n2cccc2)c1)c1ccc(Nc2ccc(-c3ccc4c(c3)CNC4=O)n3ccnc23)cc1 ?
6.00 to 7.00

What does the record list as pIC50 for CCN(CC)CCNC(=O)c1ccc(Nc2ccc(-c3ccc4c(c3)CNC4=O)n3ccnc23)cc1 ?
> 7.00

====

System: MMP1 expression by complex trigger activated SFs
Assay: MMP assay: MMP1 expression (ELISA) by SFs activated with the 'complex trigger'
Assay type: cell-based
Details: Homo sapiens; SFs activated with supernatant of TNF-α-treated THP-1 cells (complex trigger), 48 hrs, FIG. 3; read-out: IC50 of reduction of MMP1 expression by SFs
pIC50: −log10 of the molar value.
measured-property: pIC50

What does the record list as pIC50 for C[C@@H]1C[C@H]2[C@@H]3CCC4=CC(=O)C=C[C@]4(C)[C@@]3(F)[C@@H](O)C[C@]2(C)[C@@]1(O)C(=O)CO ?
~9.00

====

Molecular target: TAK1-TAB1 fusion protein (Homo sapiens, UniProt O43318)
Sequence (O43318 with tags, fused parts or gaps limits assumed): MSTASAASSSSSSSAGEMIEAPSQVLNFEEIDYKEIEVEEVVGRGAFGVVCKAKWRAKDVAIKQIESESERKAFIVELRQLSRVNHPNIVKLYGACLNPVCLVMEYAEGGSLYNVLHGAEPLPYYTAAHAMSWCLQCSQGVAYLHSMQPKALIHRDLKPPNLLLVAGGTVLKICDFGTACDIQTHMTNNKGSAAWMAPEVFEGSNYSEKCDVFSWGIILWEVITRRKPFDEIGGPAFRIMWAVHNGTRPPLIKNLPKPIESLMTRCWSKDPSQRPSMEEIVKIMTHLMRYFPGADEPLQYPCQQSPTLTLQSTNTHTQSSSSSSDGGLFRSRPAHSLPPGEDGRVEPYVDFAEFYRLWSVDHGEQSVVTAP
Assay: In vitro TAK1 kinase assay (33P-ATP, casein substrate)
Conditions: semi-quantitative score, at least two independent experiments
For each record, write down the corresponding IC50.

What does the record list as IC50 for CC1CCCN(C2CCN(C(=O)c3ccc(Nc4ccc(-c5ccc6c(c5)CNC6=O)n5ccnc45)cc3)CC2)C1 (stereo not shown) ?
101 to 1000 nM

What does the record list as IC50 for CCN1CCC[C@H]1CNC(=O)c1ccc(Nc2ccc(-c3ccc4c(c3)CNC4=O)n3ccnc23)cc1 ?
< 100 nM

What does the record list as IC50 for CCN1CCN(c2ccc(Nc3ccc(-c4cc[nH]c(=O)c4)n4ccnc34)cc2Cl)CC1 ?
101 to 1000 nM

What does the record list as IC50 for C[C@@H]1CN(c2ccc(Nc3ccc(-c4cc[nH]c(=O)c4)n4ccnc34)cc2)C[C@H](C)O1 ?
1000 to 3000 nM

What does the record list as IC50 for NC(=O)c1ccc(-c2ccc(Nc3ccc(N4CCN(C5CC5)CC4)cc3)c3nccn23)cc1 ?
1000 to 3000 nM

What does the record list as IC50 for COCCN(C)C(=O)c1ccc(Nc2ccc(-c3ccc4c(c3)CNC4=O)n3ccnc23)cc1 ?
101 to 1000 nM

What does the record list as IC50 for C[C@@H]1CN(c2ccc(Nc3ccc(-c4cc[nH]c(=O)c4)n4ccnc34)cc2)C[C@H](C)N1C ?
101 to 1000 nM
